test system: CCRIS mutagenicity, Ames/micronucleus/aberration tests; experiment: CCRIS mutagenicity studies; settings: Test System: AMES SALMONELLA TYPHIMURIUM; Strain/Indicator: TA97; Metabolic Activation: NONE; Method: PREINCUBATION
Calls of active or inactive are those of the source. How the calls were made is not given here.
Labels: yes (1) for active, no (0) for inactive

- O=C([O-])[O-].[Mn+2]: no (0)
- Oc1ccc(Cl)cc1Sc1cc(Cl)ccc1O: no (0)
- OCC1CO1 (configuration not stated): yes (1)
- Cc1cc(C)cc(N)c1: no (0)
- Cc1ccc(N(C)C)cc1: no (0)
- N#CCO: no (0)
- ClCC(Cl)Cl: no (0)
- CN(C)c1ccc(N=NS(=O)(=O)O)cc1: yes (1)
- COc1cc(C(C)=O)cc(OC)c1O: no (0)
- O=P(O)(O)O: no (0)
- CCC1(c2ccccc2)C(=O)NC(=O)NC1=O: no (0)
- C=C(C)C(=O)OCCCCCCCC: no (0)
